A collection of variants and their measured scaled log2 fold change
B1: library; numbered along this chain (parent)
chain: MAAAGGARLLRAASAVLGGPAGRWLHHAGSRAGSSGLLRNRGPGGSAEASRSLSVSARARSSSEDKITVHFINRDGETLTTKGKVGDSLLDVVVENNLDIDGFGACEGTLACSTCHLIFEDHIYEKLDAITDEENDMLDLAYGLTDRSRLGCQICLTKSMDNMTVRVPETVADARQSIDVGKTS

- Variants of: B1
- TEST: scaled log2 fold change in cell abundance, elesclomol vs control (0 = silent mean, 1 = nonsense mean) (scaled log2 ratio); higher = higher viability under elesclomol (loss of FDX1 cuproptosis function);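 further: variant abundance is its share of total variant reads in each endpoint sample, from next-generation sequencing of the integrated ORF PCR-amplified out of genomic DNA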
- TEST_CONDITIONS: with ABC1 FDX1 KO; elesclomol 5 nM; glucose 10 mM; 14 days
Just the number, please, no unit attached.

Reference set, count: 6
| MUTATION_DESCRIPTOR | RECORDED_METRIC | MEASURED_RESULT |
| --- | --- | --- |
| S30M | scaled log2 fold change | 0.423 |
| R58H | scaled log2 fold change | 0.4 |
| R41Q | scaled log2 fold change | -0.31 |
| V94F | scaled log2 fold change | -0.376 |
| A21C | scaled log2 fold change | -0.145 |
| S184T | scaled log2 fold change | -0.0663 |

Data request: scaled log2 fold change for "D101S" ?
Data returned: -0.19

Data request: scaled log2 fold change for "G151M" ?
Data returned: 1.01
